Test system: KRAS PDC multicell spheroid viability
Assay: Anticancer human tumor 521955-158-R6-J3-PDC patient-derived pancreatic carcinoma cell line growth inhibition [KRAS2]
Settings: second compound 10 µM; first compound 0.316 µM; hits give low values
Description: Multicellular complex tumor spheroid response to RAS pathway inhibitors in combination with a targeted agents in patient-derived cell lines with oncogenic KRAS variants from multiple cancer types A high-throughput screen of multi-cell type tumor spheroids was designed to identify active combinations of targeted small molecules and KRAS pathway inhibitors. […] Compounds. […] If the clinical Cmax for an agent had not been determined, the highest concentration tested was 10 microM. […]
// returns Not fulfilled unless viability, T/C is strictly below 30%, in which case Fulfilled

molecule	classLabel
CC1COCCN1c1cc(-c2ccnn2C)c2ccnc(-c3ccn[nH]3)c2n1 (stereo not given) + CNCc1ccccc1-c1csc(C(C)Nc2nc(C)nc3cc(OC)c(OC)cc23)c1	Fulfilled
COc1cc(Nc2ncc3c(n2)-c2ccc(Cl)cc2C(c2c(F)cccc2OC)=NC3)ccc1C(=O)O + CNCc1ccccc1-c1csc(C(C)Nc2nc(C)nc3cc(OC)c(OC)cc23)c1	Fulfilled
CCN1CCN(Cc2ccc(Nc3ncc(F)c(-c4cc(F)c5nc(C)n(C(C)C)c5c4)n3)nc2)CC1 + C=CC(=O)N1CCN(c2nc(=O)n(-c3c(C)ccnc3C(C)C)c3nc(-c4c(O)cccc4F)c(F)cc23)C(C)C1	Not fulfilled
COC(=O)c1ccc2c(C(=Nc3ccc(N(C)C(=O)CN4CCN(C)CC4)cc3)c3ccccc3)c(O)[nH]c2c1 + C=CC(=O)N1CCN(c2nc(=O)n(-c3c(C)ccnc3C(C)C)c3nc(-c4c(O)cccc4F)c(F)cc23)C(C)C1	Not fulfilled
CC1COCCN1c1cc(-c2ccnn2C)c2ccnc(-c3ccn[nH]3)c2n1 (stereo not given) + COc1cc2nc(C)nc(NC(C)c3cc(N)cc(C(F)(F)F)c3)c2cc1OC1CCOC1	Not fulfilled
CC1(C)CCC(CN2CCN(c3ccc(C(=O)NS(=O)(=O)c4ccc(NCC5CCOCC5)c([N+](=O)[O-])c4)c(Oc4cnc5[nH]ccc5c4)c3)CC2)=C(c2ccc(Cl)cc2)C1 + CNCc1ccccc1-c1csc(C(C)Nc2nc(C)nc3cc(OC)c(OC)cc23)c1	Fulfilled
COc1cc(Nc2ncc3c(n2)-c2ccc(Cl)cc2C(c2c(F)cccc2OC)=NC3)ccc1C(=O)O + C=CC(=O)N1CCN(c2nc(=O)n(-c3c(C)ccnc3C(C)C)c3nc(-c4c(O)cccc4F)c(F)cc23)C(C)C1	Not fulfilled
CCNC(=O)CC1N=C(c2ccc(Cl)cc2)c2cc(OC)ccc2-n2c(C)nnc21 (stereo not given) + CNCc1ccccc1-c1csc(C(C)Nc2nc(C)nc3cc(OC)c(OC)cc23)c1	Fulfilled
CCNC(=O)CC1N=C(c2ccc(Cl)cc2)c2cc(OC)ccc2-n2c(C)nnc21 (stereo not given) + C=CC(=O)N1CCN(c2nc(=O)n(-c3c(C)ccnc3C(C)C)c3nc(-c4c(O)cccc4F)c(F)cc23)C(C)C1	Not fulfilled

###

test system: KRAS PDC multicell spheroid viability; test: Anticancer human tumor 521955-158-R6-J3-PDC cell line growth inhibition [KRAS2]; settings: second compound 0.1 µM; first compound 0.000316 µM; hits give low values;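 note: drug exposure lasted seven days; 100% = DMSO vehicle wells and lower means fewer viable cells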

compound	measurementTarget	viability, T/C
CN(C)C/C=C/C(=O)Nc1cc2c(Nc3ccc(F)c(Cl)c3)ncnc2cc1O[C@H]1CCOC1 + CC1OCC2(CCN(c3cnc(Sc4ccnc(N)c4Cl)c(N)n3)CC2)C1N	KRAS PDC multicell spheroid viability	99.4%
CC(C)n1nc(-c2ccc3oc(N)nc3c2)c2c(N)ncnc21 + CC1OCC2(CCN(c3cnc(Sc4ccnc(N)c4Cl)c(N)n3)CC2)C1N	KRAS PDC multicell spheroid viability	89%
Cn1ncnc1[C@H]1c2n[nH]c(=O)c3cc(F)cc(c23)N[C@@H]1c1ccc(F)cc1 + CC1OCC2(CCN(c3cnc(Sc4ccnc(N)c4Cl)c(N)n3)CC2)C1N	KRAS PDC multicell spheroid viability	86.7%
CC(=O)Nc1cccc(-n2c(=O)n(C3CC3)c(=O)c3c(Nc4ccc(I)cc4F)n(C)c(=O)c(C)c32)c1 + CC1OCC2(CCN(c3cnc(Sc4ccnc(N)c4Cl)c(N)n3)CC2)C1N	KRAS PDC multicell spheroid viability	82.8%
CC(C)n1nc(-c2ccc3oc(N)nc3c2)c2c(N)ncnc21 + COc1cc2nc(C)nc(NC(C)c3cc(N)cc(C(F)(F)F)c3)c2cc1OC1CCOC1	KRAS PDC multicell spheroid viability	96.3%
Cn1ncnc1[C@H]1c2n[nH]c(=O)c3cc(F)cc(c23)N[C@@H]1c1ccc(F)cc1 + COc1cc2nc(C)nc(NC(C)c3cc(N)cc(C(F)(F)F)c3)c2cc1OC1CCOC1	KRAS PDC multicell spheroid viability	96.2%
